system: recombinant NL4-3 virus (Renilla luciferase in nef, Gag P373S); assay: HIV cell culture assay (luciferase reporter, MT-2 cells); assay type: cell-based, HIV-1; settings: MT-2 cells infected for 4-5 days with NLRluc recombinants; luciferase activity; serial dilutions of inhibitor
pEC50: −log10 of the molar value.
Attribute: pEC50
assay endpoint: pEC50

molecule	assay endpoint	measured result
CC([C@@H]1CC[C@]2(NCCN3CCS(=O)(=O)CC3)CC[C@]3(C)[C@H](CC[C@@H]4[C@@]5(C)CC=C(c6ccc(C(=O)O)cc6)C(C)(C)[C@@H]5CC[C@]43C)[C@@H]12)N(C)C (single isomer, unassigned) [Example B39]	pEC50	8.36
CC(CO)[C@@H]1CC[C@]2(NCCN3CCS(=O)(=O)CC3)CC[C@]3(C)[C@H](CC[C@@H]4[C@@]5(C)CC=C(c6ccc(C(=O)O)cc6)C(C)(C)[C@@H]5CC[C@]43C)[C@@H]12 (single isomer, unassigned) [Example B5]	pEC50	8.94
CC([C@@H]1CC[C@]2(NCCN3CCS(=O)(=O)CC3)CC[C@]3(C)[C@H](CC[C@@H]4[C@@]5(C)CC=C(c6ccc(C(=O)O)cc6)C(C)(C)[C@@H]5CC[C@]43C)[C@@H]12)N(C)C (single isomer, unassigned) [Example B40]	pEC50	7.40
CC(N)[C@@H]1CC[C@]2(NCCN3CCS(=O)(=O)CC3)CC[C@]3(C)[C@H](CC[C@@H]4[C@@]5(C)CC=C(c6ccc(C(=O)O)cc6)C(C)(C)[C@@H]5CC[C@]43C)[C@@H]12 (single isomer, unassigned) [Example B41]	pEC50	7.40
CC(CO)[C@@H]1CC[C@]2(NCCN3CCS(=O)(=O)CC3)CC[C@]3(C)[C@H](CC[C@@H]4[C@@]5(C)CC=C(c6ccc(C(=O)O)cc6)C(C)(C)[C@@H]5CC[C@]43C)[C@@H]12 (single isomer, unassigned) [Example B6]	pEC50	8.43
CC(C(=O)O)[C@@H]1CC[C@]2(NCCN3CCS(=O)(=O)CC3)CC[C@]3(C)[C@H](CC[C@@H]4[C@@]5(C)CC=C(c6ccc(C(=O)O)c(F)c6)C(C)(C)[C@@H]5CC[C@]43C)[C@@H]12 (some centres unmarked) [Example A6]	pEC50	6.41
CC(CC(=O)O)[C@@H]1CC[C@]2(C(=O)NCCN(C)C)CC[C@]3(C)[C@H](CC[C@@H]4[C@@]5(C)CC[C@H](c6ccc(C(=O)O)cc6)C(C)(C)[C@@H]5CC[C@]43C)[C@@H]12 (single isomer, unassigned) [Example 21]	pEC50	7.40
CC(CO)[C@@H]1CC[C@]2(NCCN3CCS(=O)(=O)CC3)CC[C@]3(C)[C@H](CC[C@@H]4[C@@]5(C)CC=C(c6ccc(C(=O)O)c(F)c6)C(C)(C)[C@@H]5CC[C@]43C)[C@@H]12 (single isomer, unassigned) [Example A4]	pEC50	8.63
